MEASURED TARGET: Recombinant human MASP2 enzyme (fragment corresponding to amino acids 297-686, C-terminal His Tag) (human, UniProt O00187 297-686)
Sequence (O00187 other isoform, or with tags, fused parts or gaps limits assumed): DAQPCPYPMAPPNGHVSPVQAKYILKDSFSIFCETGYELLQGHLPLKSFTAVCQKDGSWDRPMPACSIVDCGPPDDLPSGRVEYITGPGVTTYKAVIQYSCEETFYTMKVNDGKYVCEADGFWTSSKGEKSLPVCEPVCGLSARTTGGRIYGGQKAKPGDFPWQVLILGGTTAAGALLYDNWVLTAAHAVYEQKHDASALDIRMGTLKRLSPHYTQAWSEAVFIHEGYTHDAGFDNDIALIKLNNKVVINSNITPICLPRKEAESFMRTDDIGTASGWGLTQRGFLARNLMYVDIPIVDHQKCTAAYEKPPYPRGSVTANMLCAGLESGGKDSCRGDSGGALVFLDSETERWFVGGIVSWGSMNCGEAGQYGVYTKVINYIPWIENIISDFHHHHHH
PROTOCOL: cell-based or functional assay
Numbered stars: 1 amine (or outer) side, 2 acyl side, 3 side chain; on linkers, the order of the positions; unused ones are H or OH. Bridge positions count the residues as written; N and C are the ends. Square brackets hold non-standard residues; d marks the D form. Ends that are not written are not given here. X13 = (2S)‑2‑amino‑3‑(1-methylcyclopropyl)propanoic acid, CC1(C[C@H](N[*:1])C(=O)[*:2])CC1; Oic = O=C(O)[C@@H]1C[C@@H]2CCCC[C@@H]2N1; Pen = CC(C)(S)[C@H](N)C(=O)O; PEG3 = NCCOCCOCCOCCC(=O)O; Sar = CNCC(=O)O
Reported values of human MASP2 IC50 for individual entries
Provide only the numeric value, understood in nM.

binder="[Sar]ICSRS[X13]P[Oic]I[Pen]IPD-OH (disulfide 3-11; N-terminus assumed; SMILES CC[C@H](C)[C@H](NC(=O)CNC)C(=O)N[C@H]1CSSC(C)(C)[C@@H](C(=O)N[C@H](C(=O)N2CCC[C@H]2C(=O)N[C@@H](CC(=O)O)C(=O)O)[C@@H](C)CC)NC(=O)[C@H]([C@@H](C)CC)NC(=O)[C@@H]2C[C@@H]3CCCC[C@@H]3N2C(=O)[C@@H]2CCCN2C(=O)[C@H](CC2(C)CC2)NC(=O)[C@H](CO)NC(=O)[C@H](CCCNC(=N)N)NC(=O)[C@H](CO)NC1=O) [((N-Me)G)-IC+SRS-((2S)-2-amino-3-(1-methylcyclopropyl)propanoic acid)-P-(Oic)-I-(Pen)+IPD-OH]" measured_number=230

According to the records, this binder [Sar]ICSRSLP[Oic]I[Pen]IPY-OH (disulfide 3-11; N-terminus assumed; SMILES CC[C@H](C)[C@H](NC(=O)CNC)C(=O)N[C@H]1CSSC(C)(C)[C@@H](C(=O)N[C@H](C(=O)N2CCC[C@H]2C(=O)N[C@@H](Cc2ccc(O)cc2)C(=O)O)[C@@H](C)CC)NC(=O)[C@H]([C@@H](C)CC)NC(=O)[C@@H]2C[C@@H]3CCCC[C@@H]3N2C(=O)[C@@H]2CCCN2C(=O)[C@H](CC(C)C)NC(=O)[C@H](CO)NC(=O)[C@H](CCCNC(=N)N)NC(=O)[C@H](CO)NC1=O) [((N-Me)G)-IC+SRSLP-(Oic)-I-(Pen)+IPY-OH] displays human MASP2 IC50 of 120

According to the records, this binder [Sar]ICSRSLP[Oic]I[Pen]IPDD-OH (disulfide 3-11; N-terminus assumed; SMILES CC[C@H](C)[C@H](NC(=O)CNC)C(=O)N[C@H]1CSSC(C)(C)[C@@H](C(=O)N[C@H](C(=O)N2CCC[C@H]2C(=O)N[C@@H](CC(=O)O)C(=O)N[C@@H](CC(=O)O)C(=O)O)[C@@H](C)CC)NC(=O)[C@H]([C@@H](C)CC)NC(=O)[C@@H]2C[C@@H]3CCCC[C@@H]3N2C(=O)[C@@H]2CCCN2C(=O)[C@H](CC(C)C)NC(=O)[C@H](CO)NC(=O)[C@H](CCCNC(=N)N)NC(=O)[C@H](CO)NC1=O) [((N-Me)G)-IC+SRSLP-(Oic)-I-(Pen)+IPDD-OH] displays human MASP2 IC50 of 40

According to the records, this binder [Sar]ICSRSLP[Oic]I[Pen]IP[PEG3]-OH (disulfide 3-11; N-terminus assumed; SMILES CC[C@H](C)[C@H](NC(=O)CNC)C(=O)N[C@H]1CSSC(C)(C)[C@@H](C(=O)N[C@H](C(=O)N2CCC[C@H]2C(=O)NCCOCCOCCOCCC(=O)O)[C@@H](C)CC)NC(=O)[C@H]([C@@H](C)CC)NC(=O)[C@@H]2C[C@@H]3CCCC[C@@H]3N2C(=O)[C@@H]2CCCN2C(=O)[C@H](CC(C)C)NC(=O)[C@H](CO)NC(=O)[C@H](CCCNC(=N)N)NC(=O)[C@H](CO)NC1=O) [((N-Me)G)-IC+SRSLP-(Oic)-I-(Pen)+IP-(PEG2(13 atoms))-OH] displays human MASP2 IC50 of 97
